molecular target: KRas G12R (Homo sapiens, UniProt P01116, G12R); assay: biochemical; conditions: Binding to KRas (IC50 nM) G12R, TR-FRET displacement, KRas G12R
Sequence (P01116 1-169 isoform P01116-2 G12R): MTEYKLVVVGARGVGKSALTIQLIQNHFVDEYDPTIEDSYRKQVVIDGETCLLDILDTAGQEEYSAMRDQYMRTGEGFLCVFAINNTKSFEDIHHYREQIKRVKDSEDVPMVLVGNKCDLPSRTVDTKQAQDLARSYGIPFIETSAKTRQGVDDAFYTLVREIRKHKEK
observable: IC50

Qu. Query: IC50; subject: CCc1c(F)ccc2cc(O)cc(N3CCc4c(nc(OCC5(CN(C)C)CC5)nc4N4C[C@@H]5C[C@H](C4)[C@H](O)C5)C3)c12
Ans. < 2 nM

Qu. Likewise for CCc1c(F)ccc2cc(O)cc(N3CCc4c(nc(OC[C@@]56CCCN5C[C@H](F)C6)nc4N4CCCC5(C4)NC(=O)N(C)C5=O)C3)c12 (stereo partly drawn) ?
Ans. 13 nM

Qu. Likewise for CCc1c(F)ccc2cc(O)cc(N3CCc4c(nc(OC[C@@]56CCCN5C[C@H](F)C6)nc4N4CCCn5nc(C(=O)N6CC7CC6CN7)cc5C4)C3)c12 (stereo partly drawn) ?
Ans. 3 nM

Qu. Likewise for CCc1c(F)ccc2cc(O)cc(N3CCc4c(nc(OC[C@@]56CCCN5C[C@H](F)C6)nc4N4CCCc5nn(C6CC6)cc5C4)C3)c12 ?
Ans. 21 nM

Qu. Likewise for CCc1c(F)ccc2cc(O)cc(N3CCc4c(nc(OCC5(CN(C)C)CC5)nc4N4CCOC(c5n[nH]c(CO)n5)C4)C3)c12 (stereo not drawn) ?
Ans. 3 nM

Qu. Likewise for O=C1CC2(CCCN(c3nc(OCC45CCCN4CCC5)nc4c3CCN(c3cc(O)cc(Cl)c3C3CC3)C4)C2)N1 (stereo not drawn) ?
Ans. 4 nM

Qu. Likewise for CCc1c(F)ccc2cc(O)cc(N3CCc4c(nc(OC[C@@]56CCCN5C[C@H](F)C6)nc4N4CCCn5nc(CN(C)C(=O)N(C)C)cc5C4)C3)c12 ?
Ans. 9 nM

Qu. Likewise for CCc1c(F)ccc2cc(O)cc(N3CCc4c(nc(OC[C@@]56CCCN5C[C@H](F)C6)nc4N4CCCn5nc(N)c(Cl)c5C4)C3)c12 ?
Ans. < 2 nM

Qu. Likewise for CCc1c(F)ccc2cc(O)cc(N3CCc4c(nc(OC[C@@]56CCCN5C[C@H](F)C6)nc4N4CCCn5nc(C(=O)NC)c(C)c5C4)C3)c12 ?
Ans. < 2 nM

Qu. Likewise for CCc1c(F)ccc2cc(O)cc(N3CCc4c(nc(OC[C@@]56CCCN5C[C@H](F)C6)nc4N4CCCn5nc(C(=O)N6CC7CCC6CC7)cc5C4)C3)c12 ?
Ans. < 2 nM

Qu. Likewise for CCc1c(F)ccc2cc(O)cc(N3CCc4c(nc(OC[C@@]56CCCN5C[C@H](F)C6)nc4N4CCCn5nc(CN(C)S(=O)(=O)NC)cc5C4)C3)c12 ?
Ans. 19 nM

Qu. Likewise for O=C1NC(=O)C2(CCCN(c3nc(OCC45CCCN4CCC5)nc4c3CCN(c3cc(O)cc(Cl)c3C3CC3)C4)C2)N1 (stereo not drawn) ?
Ans. < 2 nM
